Target: acetylcholinesterase (AChE, electric eel) (Electrophorus electricus, UniProt O42275)
Sequence (O42275 24-633): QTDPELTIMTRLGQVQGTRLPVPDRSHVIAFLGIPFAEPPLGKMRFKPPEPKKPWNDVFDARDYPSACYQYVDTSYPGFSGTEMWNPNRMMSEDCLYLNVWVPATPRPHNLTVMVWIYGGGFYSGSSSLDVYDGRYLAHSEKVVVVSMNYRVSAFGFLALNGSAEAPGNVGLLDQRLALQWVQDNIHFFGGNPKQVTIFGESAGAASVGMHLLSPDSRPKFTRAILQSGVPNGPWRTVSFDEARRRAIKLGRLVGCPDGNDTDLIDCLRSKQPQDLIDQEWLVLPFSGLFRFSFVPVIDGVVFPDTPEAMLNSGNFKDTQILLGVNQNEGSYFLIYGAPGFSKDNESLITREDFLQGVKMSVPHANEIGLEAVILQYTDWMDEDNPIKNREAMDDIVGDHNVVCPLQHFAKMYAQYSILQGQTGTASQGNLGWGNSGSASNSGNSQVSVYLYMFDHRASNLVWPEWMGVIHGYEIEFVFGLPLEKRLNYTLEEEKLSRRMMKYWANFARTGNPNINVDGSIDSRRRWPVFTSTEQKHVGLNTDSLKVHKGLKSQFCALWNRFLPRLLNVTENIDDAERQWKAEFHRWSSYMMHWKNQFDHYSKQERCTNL
Settings: c = 10 µM; mean ± SE
Excerpt: In this study, carboxamides with different triterpenoic backbones (ursolic, oleanolic, maslinic, betulinic, and platanic acids), and various amine residues (Scheme 1), were investigated. A TECAN SpectraFluorPlus working in the kinetic mode and measuring the absorbance at λ = 415 nm was used for the enzymatic studies. […] determined as the quotient of the slopes (compound divided by blank) of the linear ranges. […]
In this section, each of the compounds is paired with its reported Grade of inhibition in% AChE.
Form entry: value (%) — number only.

| compound | unit-abbrev | value |
| --- | --- | --- |
| C=C(C)C1CC[C@]2(C(=O)NCCN)CC[C@]3(C)C(CCC4[C@@]5(C)CC[C@H](O)C(C)(C)C5CC[C@]43C)C12 (stereo partly drawn) | % | 62.95 |

Give Grade of inhibition in% AChE for CN(C)CCNC(=O)C12CCC(C)(C)CC1C1=CCC3C4(C)CCC(O)C(C)(C)C4CCC3(C)C1(C)CC2 (stereo not drawn)
5.54

Give Grade of inhibition in% AChE for C=C(C)C1CC[C@]2(C(=O)NCCN3CCCCC3)CC[C@]3(C)C(CCC4[C@@]5(C)CC[C@H](O)C(C)(C)C5CC[C@]43C)C12 (stereo partly drawn)
82.72

Give Grade of inhibition in% AChE for CC1(C)CCC2(C(=O)NCCN3CCCCC3)CCC3(C)C(=CCC4C5(C)CC(O)C(O)C(C)(C)C5CCC43C)C2C1 (stereo not drawn)
9.32

Give Grade of inhibition in% AChE for C=C(C)C1CC[C@]2(C(=O)NCCN)CC[C@]3(C)C(CCC4[C@@]5(C)CC[C@H](OC(C)=O)C(C)(C)C5CC[C@]43C)C12 (stereo partly drawn)
56.17

Give Grade of inhibition in% AChE for CC(=O)O[C@H]1CC[C@@]2(C)C(CC[C@]3(C)C2CC=C2C4[C@@H](C)[C@H](C)CC[C@]4(C(=O)NCCN(C)C)CC[C@]23C)C1(C)C (stereo partly drawn)
10.78

Give Grade of inhibition in% AChE for CC(=O)O[C@H]1CC[C@]2(C)[C@H]3CC=C4[C@@H]5CC(C)(C)CC[C@]5(C(=O)NCCN5CCCC5)CC[C@@]4(C)[C@]3(C)CC[C@H]2C1(C)C
7.29

Give Grade of inhibition in% AChE for CC(=O)[C@@H]1CC[C@]2(C(=O)NCCN)CC[C@]3(C)[C@H](CC[C@@H]4[C@@]5(C)CC[C@H](O)C(C)(C)[C@@H]5CC[C@]43C)[C@@H]12
37.09

Give Grade of inhibition in% AChE for CC1(C)CC[C@]2(C(=O)NCCN)CC[C@]3(C)C(=CC[C@@H]4[C@@]5(C)CC[C@H](O)C(C)(C)[C@@H]5CC[C@]43C)[C@@H]2C1
88.61

Give Grade of inhibition in% AChE for C=C(C)C1CC[C@]2(C(=O)NCCN(C)C)CC[C@]3(C)C(CCC4[C@@]5(C)CC[C@H](OC(C)=O)C(C)(C)C5CC[C@]43C)C12 (stereo partly drawn)
13.10

Give Grade of inhibition in% AChE for C[C@@H]1CC[C@]2(C(=O)NCCN)CC[C@]3(C)C(=CCC4[C@@]5(C)CC[C@H](O)C(C)(C)C5CC[C@]43C)C2[C@H]1C (stereo partly drawn)
28.54

* * *

Molecular target: butyrylcholinesterase (BChE, equine serum) (Equus caballus, UniProt P81908)
Construct: Butyrylcholinesterase (from equine serum) was purchased from Fluka; purchased Fluka; host or cells: equine serum
Sequence (P81908 whole entry): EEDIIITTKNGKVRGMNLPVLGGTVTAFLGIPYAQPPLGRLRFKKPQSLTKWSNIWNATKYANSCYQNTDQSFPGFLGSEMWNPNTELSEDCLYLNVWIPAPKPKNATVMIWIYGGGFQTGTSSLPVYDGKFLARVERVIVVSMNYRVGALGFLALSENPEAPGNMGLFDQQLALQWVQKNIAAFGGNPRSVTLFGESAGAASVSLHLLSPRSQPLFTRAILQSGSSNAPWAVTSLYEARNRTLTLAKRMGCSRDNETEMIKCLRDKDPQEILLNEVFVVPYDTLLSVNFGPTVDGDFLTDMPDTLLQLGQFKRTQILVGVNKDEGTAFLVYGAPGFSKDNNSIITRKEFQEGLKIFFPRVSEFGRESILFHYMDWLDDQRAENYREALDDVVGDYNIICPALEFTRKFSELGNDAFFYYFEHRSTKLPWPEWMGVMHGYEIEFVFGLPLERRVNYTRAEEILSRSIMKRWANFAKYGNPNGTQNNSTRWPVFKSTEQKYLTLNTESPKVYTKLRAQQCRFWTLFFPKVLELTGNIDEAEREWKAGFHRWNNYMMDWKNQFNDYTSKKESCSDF
Test: Ellman's assay, butyrylcholinesterase inhibition
Assay type: biochemical
Conditions: experimental Ki restated in docking Table 3; unit inferred; read-out: Ki
In this section, each of the compounds is paired with its reported Ki.
Form entry: value (nM) — number only.

| compound | unit-abbrev | Ki |
| --- | --- | --- |
| CC(=O)O[C@H]1CC[C@@]2(C)C(CC[C@]3(C)C2CC=C2C4[C@@H](C)[C@H](C)CC[C@]4(C(=O)NCCN4CCCC4)CC[C@]23C)C1(C)C (stereo partly drawn) | nM | 4420 |

Give Ki for CC(=O)O[C@H]1CC[C@]2(C)[C@H]3CC[C@@H]4[C@H]5[C@H](C(C)=O)CC[C@]5(C(=O)NCCN5CCCC5)CC[C@@]4(C)[C@]3(C)CC[C@H]2C1(C)C
70

Give Ki for C=C(C)C1CC[C@]2(C(=O)NCCN3CCCC3)CC[C@]3(C)C(CCC4[C@@]5(C)CC[C@H](OC(C)=O)C(C)(C)C5CC[C@]43C)C12 (stereo partly drawn)
390

* * *

Target: UniProtKB O42275
Conditions: c = 30 µM; mean ± SE
endpoint: Grade of inhibition in% AChE (%)
Form entry: value (%) — number only.

Look over these answered cases.
| compound | Grade of inhibition in% AChE (%) |
| --- | --- |
| CN(C)CCNC(=O)[C@]12CCC(C)(C)C[C@H]1C1=CC[C@@H]3[C@@]4(C)C[C@@H](O)[C@H](O)C(C)(C)[C@@H]4CC[C@@]3(C)[C@]1(C)CC2 | 13.47 |
| CC(=O)O[C@H]1CC[C@]2(C)[C@H]3CC[C@@H]4[C@H]5[C@H](C(C)=O)CC[C@]5(C(=O)NCCN5CCCC5)CC[C@@]4(C)[C@]3(C)CC[C@H]2C1(C)C | 19.97 |
| CC1(C)CCC2(C(=O)NCCN3CCCC3)CCC3(C)C(=CCC4C5(C)CC(O)C(O)C(C)(C)C5CCC43C)C2C1 (stereo not drawn) | 23.33 |
| CC1(C)CCC2(C(=O)NCCN)CCC3(C)C(=CCC4C5(C)CC(O)C(O)C(C)(C)C5CCC43C)C2C1 (stereo not drawn) | 39.15 |
| CC(=O)OC1CC2(C)C(CCC3(C)C2CC=C2C4CC(C)(C)CCC4(C(=O)NCCN4CCCC4)CCC23C)C(C)(C)C1OC(C)=O (stereo not drawn) | 23.47 |

Could you now look at the following compound, please?
State recorded Grade of inhibition in% AChE with UniProtKB O42275, entry C[C@@H]1CC[C@]2(C(=O)NCCN3CCCC3)CC[C@]3(C)C(=CCC4[C@@]5(C)CC[C@H](O)C(C)(C)C5CC[C@]43C)C2[C@H]1C (stereo partly drawn) , no comment.
31.45

* * *

Target: butyrylcholinesterase (BChE, equine serum) (Equus caballus)
Construct: Butyrylcholinesterase (from equine serum) was purchased from Fluka; purchased Fluka; host or cells: equine serum
Experiment: Ellman's assay, butyrylcholinesterase inhibition
Type: biochemical
Conditions: BChE, equine serum; Ellman's assay
endpoint: Ki′ (uncompetitive inhibition) (µM)
Form entry: value (µM) — number only.

Look over these answered cases.
| compound | measured-target | Ki′ (uncompetitive inhibition) / µM |
| --- | --- | --- |
| CC(=O)O[C@H]1CC[C@]2(C)[C@H]3CC[C@@H]4[C@H]5[C@H](C(C)=O)CC[C@]5(C(=O)NCCN5CCCC5)CC[C@@]4(C)[C@]3(C)CC[C@H]2C1(C)C | butyrylcholinesterase (BChE, equine serum) (Equus caballus) | 2.38 |
| CC(=O)O[C@H]1CC[C@]2(C)[C@H]3CC[C@@H]4[C@H]5[C@H](C(C)=O)CC[C@]5(C(=O)NCCN)CC[C@@]4(C)[C@]3(C)CC[C@H]2C1(C)C | butyrylcholinesterase (BChE, equine serum) (Equus caballus) | 17.14 |

Give Ki′ (uncompetitive inhibition) for CC(=O)O[C@H]1CC[C@@]2(C)C(CC[C@]3(C)C2CC=C2C4[C@@H](C)[C@H](C)CC[C@]4(C(=O)NCCN(C)C)CC[C@]23C)C1(C)C (stereo partly shown)
143.36

* * *

Biological target: butyrylcholinesterase (BChE, equine serum) (Equus caballus, UniProt P81908)
Construct: Butyrylcholinesterase (from equine serum) was purchased from Fluka; purchased Fluka; host or cells: equine serum
Assay: Ellman's assay, butyrylcholinesterase inhibition
Format: biochemical
Conditions: BChE, equine serum; Ellman's assay
From the text: In this study, carboxamides with different triterpenoic backbones (ursolic, oleanolic, maslinic, betulinic, and platanic acids), and various amine residues (Scheme 1), were investigated. A TECAN SpectraFluorPlus working in the kinetic mode and measuring the absorbance at λ = 415 nm was used for the enzymatic studies. […] determined as the quotient of the slopes (compound divided by blank) of the linear ranges. […]
endpoint: Ki′ (uncompetitive inhibition) (µM)
Form entry: value (µM) — number only.

| molecule | measured-target | endpoint | unit-abbrev | value |
| --- | --- | --- | --- | --- |
| C=C(C)C1CC[C@]2(C(=O)NCCN(C)C)CC[C@]3(C)C(CCC4[C@@]5(C)CC[C@H](O)C(C)(C)C5CC[C@]43C)C12 (stereo partly drawn) [Compound 29] | butyrylcholinesterase (BChE, equine serum) (Equus caballus, UniProt P81908) | Ki′ (uncompetitive inhibition) | µM | 16.11 |
| CC(=O)O[C@H]1CC[C@]2(C)[C@H]3CC[C@@H]4[C@H]5[C@H](C(C)=O)CC[C@]5(C(=O)NCCN5CCCCC5)CC[C@@]4(C)[C@]3(C)CC[C@H]2C1(C)C [Compound 45] | butyrylcholinesterase (BChE, equine serum) (Equus caballus, UniProt P81908) | Ki′ (uncompetitive inhibition) | µM | 4.88 |

Could you now look at the following molecule, please?
Give Ki′ (uncompetitive inhibition) for CC1(C)CCC2(C(=O)NCCN3CCCC3)CCC3(C)C(=CCC4C5(C)CC(O)C(O)C(C)(C)C5CCC43C)C2C1 (stereo not drawn) [Compound 38]
14.15
